Collected pIC50 for Epithelial discoidin domain-containing receptor 1 (Homo sapiens, UniProt Q08345) across several studies; compounds listed below.
pIC50: −log10 of the molar value.
Response key: Satisfied means pIC50 >= 8; Not satisfied means pIC50 < 8.

{"COMPOUND": "CCc1ccc(C(=O)N[C@H](CO)CCOC(F)(F)F)cc1NC(=O)c1cncc(OCC2CC2)c1", "GROUP LABEL": "Not satisfied"}
{"COMPOUND": "Nc1cnc(C#Cc2cc(C(=O)N[C@H]3C[C@H](OC(F)(F)F)C[C@@H]3O)ccc2OC(F)F)cn1", "GROUP LABEL": "Satisfied"}
{"COMPOUND": "Nc1cnc(C#Cc2cc(C(=O)N[C@H](CO)CCOC(F)(F)F)ccc2OC(F)F)cn1", "GROUP LABEL": "Satisfied"}

Test whether the compound "CCS(=O)(=O)c1ccc(Cl)cc1CNC(=O)c1cc(Br)cc(OC(F)(F)F)c1" records pIC50 of 8 or higher.
Not satisfied

And then "Cc1ccc2c(Nc3cccc(Cl)c3F)nccc2c1NC(=O)c1csc2c(N)ncnc12" , what is it?
Not satisfied

And then "COc1ccc2c(O[C@H]3CC[C@H](N4C(=O)CN(c5cncc(C(F)(F)F)c5)C4=O)CC3)ncnc2c1" , what is it?
Satisfied

And then "COc1cc2nccc(Cc3ccc(N4C(=O)CN(c5cccc(C(F)(F)F)c5)C4=O)cc3)c2cc1OC" , what is it?
Satisfied

And then "O=C1CN(c2cncc(C(F)(F)F)c2)C(=O)N1C12CCC(Oc3ncnc4[nH]ccc34)(CC1)C2" , what is it?
Satisfied

* * *

Collected IC50 for Epithelial discoidin domain-containing receptor 1 (Homo sapiens) across several studies; molecules listed below.
Write the number in nM without appending the unit.

Examples with their reported IC50 follow.
{"MOLECULE": "Nc1cnc(/C(F)=C/c2cc(C(=O)N[C@H]3CC(F)(F)CC[C@@H]3O)ccc2OC(F)F)cn1", "IC50 / nM": 1.7}
{"MOLECULE": "Nc1ncc(C#Cc2cc(C(=O)N[C@H]3CC4(CC4)C[C@@H]3O)ccc2OC(F)F)cn1", "IC50 / nM": 0.27}
{"MOLECULE": "Nc1ncc(/C=C(\\F)c2cc(C(=O)N[C@H](CO)CCOC(F)(F)F)ccc2OC(F)F)cn1", "IC50 / nM": 1.1}
{"MOLECULE": "CC1CN(c2cncnc2)Cc2cc(C(=O)Nc3cc(CN4CCN(C)CC4)cc(C4CCCCC4)c3)ccc21 (stereo not shown)", "IC50 / nM": 71.6}
{"MOLECULE": "NC(=O)c1ncc2cc(-c3cc(C(=O)N[C@H]4C[C@H](OC(F)(F)F)C[C@@H]4O)ccc3C(F)(F)F)ccn12", "IC50 / nM": 0.81}

Dear colleague, I am looking for the recorded IC50 of the following molecule: "Nc1nccc(Oc2ccc(N3C(=O)CN(c4cncc(C(F)(F)F)c4)C3=O)c(-c3ccccc3)c2)n1"
5

And then "NC(=O)c1ncc2cc(-c3cc(C(=O)N[C@H](CO)CCOC(F)(F)F)cnc3C(F)(F)F)ccn12" , what is it?
18

And then "Nc1ncc(/C=C(\F)c2cc(C(=O)N[C@H]3CC4(CC4)C[C@@H]3O)ccc2OC(F)F)cn1" , what is it?
0.48

* * *

Collected IC50 for Epithelial discoidin domain-containing receptor 1 (Homo sapiens) across several studies; compounds listed below.
Write the number in nM without appending the unit.

Examples with their reported IC50 follow.
{"COMPOUND": "C=Cc1cc(N2C(=O)CN(c3cncc(C(F)(F)F)c3)C2=O)ccc1Nc1ncnc2cc(OC)cc(F)c12", "TESTED SYSTEM": "Epithelial discoidin domain-containing receptor 1 (Homo sapiens)", "OUTCOME MEASURE": "IC50", "NUMERIC VALUE": 3}
{"COMPOUND": "COc1cncc(/C=C(\\F)c2cc(C(=O)N[C@H]3C[C@H](OC(F)(F)F)C[C@@H]3O)cc(F)c2OC(F)F)c1", "TESTED SYSTEM": "Epithelial discoidin domain-containing receptor 1 (Homo sapiens)", "OUTCOME MEASURE": "IC50", "NUMERIC VALUE": 0.87}
{"COMPOUND": "CC1Cc2ccc(C(=O)Nc3cc(CN4CCN(C)CC4)cc(C(F)(F)F)c3)cc2CN1c1cncnc1 (centres unmarked)", "TESTED SYSTEM": "Epithelial discoidin domain-containing receptor 1 (Homo sapiens)", "OUTCOME MEASURE": "IC50", "NUMERIC VALUE": 544}

Dear colleague, I am looking for the recorded IC50 of the following compound: "CCc1ccc(C(=O)N[C@H]2C[C@H](OC(F)(F)F)C[C@@H]2O)cc1NC(=O)c1cnc(-c2ccccc2)o1"
7.5

And then "Cc1cc(Oc2ccnc(N)n2)ccc1N1C(=O)CN(c2cc(F)cc(C(F)(F)F)c2)C1=O" , what is it?
1

And then "CCc1cc(N2CCN(c3cccc(C(F)(F)F)c3)C2=O)ccc1Oc1ccnc(N)n1" , what is it?
3

And then CC1CN(c2cncnc2)Cc2cc(C(=O)Nc3cc(CN4CCCC4)cc(C(F)(F)F)c3)ccc21 (centres unmarked) , what is it?
222

And then "CCc1ccc(C(=O)N[C@H]2C[C@H](OC(F)(F)F)C[C@@H]2O)cc1NC(=O)c1cncc(OCC2CC2)c1" , what is it?
1.6

* * *

Collected pIC50 for Epithelial discoidin domain-containing receptor 1 (Homo sapiens, UniProt Q08345) across several studies; compounds listed below.
Answer as the number alone; pIC50 is minus log10 of concentration in mol/L.

{"COMPOUND": "O=C1CN(c2cncc(C(F)(F)F)c2)C(=O)N1C1CC2CC1CC2Oc1ncnc2[nH]ccc12 (stereo not shown)", "pIC50": 8.15}
{"COMPOUND": "CCN1CCN(Cc2cc(NC(=O)c3ccc4c(c3)CN(c3cncnc3)CC4C)cc(C(F)(F)F)c2)CC1 (stereo not shown)", "pIC50": 7.41}
{"COMPOUND": "CCc1ccc(C(=O)N[C@H]2C[C@H](OC(F)(F)F)C[C@@H]2O)cc1NC(=O)c1cncc(-c2cccc(F)c2)c1", "pIC50": 8.74}

Dear colleague, I am looking for the recorded pIC50 of the following compound: CC(C)c1cc(CN2CCN(C)CC2)cc(NC(=O)c2ccc3c(c2)CN(c2cncnc2)CC3C)c1 (stereo not shown)
7.45

And then CC1CN(c2cncnc2)Cc2cc(C(=O)Nc3cc(CN4CCN(C)CC4)cc(-c4ccccc4)c3)ccc21 (stereo not shown) , what is it?
7.35

And then "CN(C)CCC1CCN(CCS(=O)(=O)c2ccc(-c3cnc(N)c(C(=O)Nc4ccccc4)n3)cc2)CC1" , what is it?
6.72

And then "NC(=O)c1ncc2cc(-c3cc(C(=O)N[C@H]4CCCC[C@@H]4O)ccc3C(F)(F)F)ccn12" , what is it?
8.60

* * *

pIC50: −log10 of the molar value.
Collected pIC50 for Epithelial discoidin domain-containing receptor 1 (Homo sapiens, UniProt Q08345) across several studies; molecules listed below.

{"STRUCTURE STRING": "CC(C)NC(=O)c1ccc(Nc2nccc(-c3ccc4nc(N5CCOCC5)ncc4c3)n2)cc1", "pIC50": "< 7.00"}
{"STRUCTURE STRING": "Cc1cn(-c2cc(NC(=O)c3ccc(C)c(CNc4cncnc4)c3)cc(C(F)(F)F)c2)cn1", "pIC50": "> 8.00"}
{"STRUCTURE STRING": "Cc1ccc(C(=O)Nc2cccc(OC(F)(F)F)c2)cc1CNc1cncnc1", "pIC50": "> 8.00"}
{"STRUCTURE STRING": "COc1cc2nccc(Oc3ccc(NC(=O)c4cc(S(C)(=O)=O)n(-c5ccc(F)cc5)n4)c(F)c3)c2cc1OC", "pIC50": "> 6.30"}
{"STRUCTURE STRING": "Cc1ccc(C(=O)Nc2cccc(C(F)(F)F)c2)cc1CNc1cncnc1", "pIC50": "> 8.00"}

Dear colleague, I am looking for the recorded pIC50 of the following molecule: "c1cc(-c2ccc3nc(N4CCCC4)ncc3c2)nc(Nc2cnn(C3CCNCC3)c2)n1"
7.00 to 7.30

And then "OCCN1CCC(n2cc(Nc3nccc(-c4ccc5nc(N6CCOCC6)ncc5c4)n3)cn2)CC1" , what is it?
> 7.30

And then "CNC(=O)c1cc(-n2ncc3cc(Nc4c(F)cccc4Cl)c(OC)cc32)cs1" , what is it?
> 6.70

* * *

Collected pIC50 for Epithelial discoidin domain-containing receptor 1 (Homo sapiens) across several studies; molecules listed below.
Answer as the number alone; pIC50 is minus log10 of concentration in mol/L.

{"MOLECULE": "CCc1cc(CN2CCN(C)CC2)cc(NC(=O)c2ccc3c(c2)CN(c2cncnc2)CC3C)c1 (stereo not drawn)", "TESTED SYSTEM": "Epithelial discoidin domain-containing receptor 1 (Homo sapiens)", "NUMERIC VALUE": 7.30}
{"MOLECULE": "NC(=O)c1ncc2cc(-c3cc(C(=O)N[C@H]4C[C@H](OC(F)(F)F)C[C@@H]4O)cnc3C(F)(F)F)ccn12", "TESTED SYSTEM": "Epithelial discoidin domain-containing receptor 1 (Homo sapiens)", "NUMERIC VALUE": 8.66}
{"MOLECULE": "CC1CN(c2cncnc2)Cc2cc(C(=O)Nc3cc(CN4CCSCC4)cc(C(F)(F)F)c3)ccc21 (stereo not drawn)", "TESTED SYSTEM": "Epithelial discoidin domain-containing receptor 1 (Homo sapiens)", "NUMERIC VALUE": 6.68}
{"MOLECULE": "O=C(N[C@H]1C[C@H](OC(F)(F)F)C[C@@H]1O)c1ccc(OC(F)F)c(C#Cc2cncc(F)c2)c1", "TESTED SYSTEM": "Epithelial discoidin domain-containing receptor 1 (Homo sapiens)", "NUMERIC VALUE": 8.44}
{"MOLECULE": "Nc1ncc(/C(F)=C/c2cc(C(=O)N[C@H](CO)c3cccc(F)c3)ccc2OC(F)F)cn1", "TESTED SYSTEM": "Epithelial discoidin domain-containing receptor 1 (Homo sapiens)", "NUMERIC VALUE": 8.09}
{"MOLECULE": "Cc1ccc(NC(=O)c2cccc(C(F)(F)F)c2)cc1C#Cc1nn(C2CCN(C)CC2)c2ncnc(N)c12", "TESTED SYSTEM": "Epithelial discoidin domain-containing receptor 1 (Homo sapiens)", "NUMERIC VALUE": 8.40}
{"MOLECULE": "CCc1ncc(C(=O)N[C@H]2C[C@H](OC(F)(F)F)C[C@@H]2O)cc1/C=C(\\F)c1cnc(N)nc1", "TESTED SYSTEM": "Epithelial discoidin domain-containing receptor 1 (Homo sapiens)", "NUMERIC VALUE": 7.66}
{"MOLECULE": "NC(=O)c1ncc2cc(-c3cc(C(=O)N[C@H](CO)CCOC(F)(F)F)ccc3C(F)(F)F)ccn12", "TESTED SYSTEM": "Epithelial discoidin domain-containing receptor 1 (Homo sapiens)", "NUMERIC VALUE": 8.66}
{"MOLECULE": "Cn1cc(-c2cc(O[C@H]3C[C@H](N4C(=O)CN(c5cc(CN6CCNCC6)cc(C(F)(F)F)c5)C4=O)C3)ccn2)cn1", "TESTED SYSTEM": "Epithelial discoidin domain-containing receptor 1 (Homo sapiens)", "NUMERIC VALUE": 8.00}
{"MOLECULE": "CC(C)c1cc(N2C(=O)CN(c3cncc(C(F)(F)F)c3)C2=O)ccc1Oc1ccnc2[nH]c(=O)[nH]c12", "TESTED SYSTEM": "Epithelial discoidin domain-containing receptor 1 (Homo sapiens)", "NUMERIC VALUE": 8.52}

Dear colleague, I am looking for the recorded pIC50 of the following molecule: CC1CN(c2cncnc2)Cc2cc(C(=O)Nc3cc(CN4CCN(C)CC4)cc(C(C)(C)C)c3)ccc21 (stereo not drawn)
7.18

And then "NC(=O)c1ncc2cc(-c3cc(C(=O)N[C@H]4CC(F)(F)CC[C@@H]4O)cnc3C(F)(F)F)ccn12" , what is it?
7.22

And then "O=C(N[C@H]1CC2(CC2)C[C@@H]1O)c1ccc(OC(F)F)c(C#Cc2cncnc2)c1" , what is it?
7.66

And then CC1CN(c2cncnc2)Cc2cc(C(=O)Nc3ccc(CN4CCN(C)CC4)c(C(F)(F)F)c3)ccc21 (stereo not drawn) , what is it?
7.70

And then "Nc1cnc(/C(F)=C/c2cc(C(=O)N[C@H]3C[C@H](OC(F)(F)F)C[C@@H]3O)ccc2OC(F)F)cn1" , what is it?
8.92

And then "Nc1ncc(C#Cc2cc(C(=O)N[C@H]3C[C@H](OC(F)(F)F)C[C@@H]3O)ccc2OC(F)F)cn1" , what is it?
9.07
